System: MDA-MB-435
assayOverview: SRB cell viability after siRNA transfection
Assay type: cell-based, human
testContext: 40 nM siRNA, day 5 post-transfection, normalized over siCONTROL
propertyLabel: % survival

- siRNA #4: siRNA targeting human TTK: 5′-GAUAAGAUCAUCCGACUUU-3′ (SEQ ID NO: 6) (listed as RNA, chemistry not given here): 0.93%
- siRNA #3: siRNA targeting human TTK: 5′-GCACGUGACUACUUUCAAA-3′ (SEQ ID NO: 5) (listed as RNA, chemistry not given here): 0.60%
- siRNA #2: siRNA targeting human TTK: 5′-GGUAUUAACUGCCCAAGAA-3′ (SEQ ID NO: 4) (listed as RNA, chemistry not given here): 0.25%
- siRNA #1: siRNA targeting human TTK: 5′-GCAAUACCUUGGAUGAUUA-3′ (SEQ ID NO: 3) (listed as RNA, chemistry not given here): 0.78%
